Where these numbers come from: patent US20250101041A1

# TARGET_OR_TEST_SYSTEM: human mAChR M4 (Homo sapiens, UniProt P08173)
# Sequence (P08173 1-479): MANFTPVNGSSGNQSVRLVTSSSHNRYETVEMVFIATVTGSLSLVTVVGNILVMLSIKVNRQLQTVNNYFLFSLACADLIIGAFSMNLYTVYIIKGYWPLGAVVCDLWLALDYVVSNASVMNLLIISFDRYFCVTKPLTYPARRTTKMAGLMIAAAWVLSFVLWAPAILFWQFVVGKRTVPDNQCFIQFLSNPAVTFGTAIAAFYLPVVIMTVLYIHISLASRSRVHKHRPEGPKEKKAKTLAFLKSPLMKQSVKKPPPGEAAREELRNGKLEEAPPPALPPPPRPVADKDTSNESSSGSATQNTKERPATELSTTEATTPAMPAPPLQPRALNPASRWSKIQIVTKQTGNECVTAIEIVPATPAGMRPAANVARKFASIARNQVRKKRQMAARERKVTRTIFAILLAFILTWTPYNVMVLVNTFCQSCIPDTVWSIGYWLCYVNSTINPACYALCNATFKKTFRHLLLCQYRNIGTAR
# PROTOCOL_DETAILS: mAChR M4 cell-based functional assay: calcium mobilization (Fluo-4, FDSS), potentiation of EC20 acetylcholine response in hM4-Gqi5 CHO-K1 cells
# EXPERIMENTAL_CONDITIONS: potentiation of EC20 acetylcholine response, calcium mobilization, human M4
Below, each of the compounds is paired with its reported pEC50 value.
pEC50 here is simply -log10 of the concentration when that concentration is written in mol/L.

# annotated cases, reported pEC50 shown
COMPOUND	pEC50
Cc1cc(=O)n2nc(N3CCc4ncc(-c5ccsc5)cc4C3)c(C)cc2n1 [Compound 1-300]	6.91
Cc1cc2nccc(=O)n2nc1N1CCc2ncc(-c3ccsc3C#N)cc2C1 [Compound 1-410]	6.75
Cc1c(N2CCc3ncc(N4CCCS4(=O)=O)cc3C2)nn2c(=O)ccnc2c1C [Compound 2-146]	5.83

Note: attention shifts to another entry.
Quick one: pEC50 for Cc1cc(=O)n2nc(N3CCc4ncc(-c5ccc(F)nc5)cc4C3)c(C)cc2n1 [Compound 1-212] ?
6.06
